measurement target: Reg1_301-599 (amino acids 301-599 of human Regnase-1) phosphorylation by IKKβ (Homo sapiens)
Sequence (Q5D1E8 301-599): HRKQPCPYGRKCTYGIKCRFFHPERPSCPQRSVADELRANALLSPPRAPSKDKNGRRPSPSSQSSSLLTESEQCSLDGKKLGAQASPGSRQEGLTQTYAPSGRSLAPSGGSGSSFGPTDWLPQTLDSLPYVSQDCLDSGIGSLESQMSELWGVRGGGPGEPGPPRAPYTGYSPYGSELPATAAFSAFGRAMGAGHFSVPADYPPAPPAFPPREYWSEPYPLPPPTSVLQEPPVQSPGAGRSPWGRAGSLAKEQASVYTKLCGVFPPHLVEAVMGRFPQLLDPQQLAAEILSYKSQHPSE
pIC50: −log10 of the molar value. Residues, ends and D or L forms follow the SMILES beside them.
endpoint: pIC50

stdin: Bench note: what pIC50 did CC[C@H](C)[C@@H]1NC(=O)[C@H](Cc2c[nH]c3ccccc23)NC(=O)[C@H](CCCNC(=N)N)NC(=O)[C@H](Cc2ccccc2)NC(=O)[C@H](CCC(N)=O)NC(=O)[C@H](C)NC(=O)[C@H](Cc2ccccc2)NC(=O)[C@H](CCCCN)NC(=O)[C@H](C)N(C)C(=O)C[C@@H](C(=O)N2CCCC2)NC(=O)[C@@H]2CCCN2C(=O)[C@H](Cc2ccc(O)cc2)NC1=O [PP11] (HELM PEPTIDE1{[meA].K.F.A.Q.F.R.W.I.Y.P.D.[C1CCN([*:1])C1]}$PEPTIDE1,PEPTIDE1,1:R1-12:R3$$$V2.0) show?
stdout: < 4.21
